Catalogue of IC50 readings, one per entry.
System: Cotinine MAb 3B11A4
Experiment: Competitive microplate ELISA (test principle #1) with immobilized COT MAb and COT-HRP tracer
Assay type: binding
Details: competitor vs COT-HRP for Cotinine MAb 3B11A4
Quantity Measured: IC50

c1cncc(C2=NCCC2)c1 ... >5,000 ng/mL
CN1C(=O)CC[C@H]1c1cccnc1 ... 66.1 ng/mL
O=C1CCC(c2cccnc2)N1 (stereo not drawn) ... >5,000 ng/mL
